Test system: MKNK1
experimental.context: concentration: 1 μM, replicates: in singlicate; n = 1;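 further: KINOMEscan kinase panel screen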
# %Inh values compiled below
Respond with the bare value in %.

| compound | observed.property | unit.abbrev | endpoint.value |
| --- | --- | --- | --- |
| COc1ccc(Nc2nccc(NCCNC(=O)Nc3cc(C)ccc3C)n2)cc1 [GSK1379899] | %Inh | % | 0 |
| COc1ccc(-c2coc3ccc(-c4nnc(C)o4)cc23)cc1 | %Inh | % | 0 |

Ask: Record request: %Inh value, item CC(C)c1ccc(O)cc1Nc1ccnc2ccc(C(F)(F)F)cc12 [GW482059]
Result: 2

Ask: What value of %Inh has been reported for the following compound? CSc1ccc(-c2nc3n(c2-c2ccncc2)CCC3)cc1 [SKF-105561]
Result: 0

Ask: Tell me the measured %Inh of Cn1cnc2c(N)ncnc21 [SKF-97623] , please.
Result: 38

Ask: For the compound shown here, O=C1NC(=O)C(c2ccc(Cl)cc2)=C1Nc1ccc(O)cc1 [SB-340867] , give the reported %Inh.
Result: 0

Ask: GET /values?readout=%Inh&item= "COc1ccc(CSc2nnc(-c3ccc4ncsc4c3)o2)cc1C(F)(F)F"
Result: 0

Ask: Dear colleague, I am looking for the recorded %Inh of the following compound: Cc1c(Cn2c(C)c(C)n3c(=O)cc(N4CCOCC4)nc23)cccc1C(F)(F)F [GSK2328680]
Result: 0

Ask: Fill in: %Inh of COc1nccc(-c2c(-c3ccc(F)cc3)ncn2CCCN2CCOCC2)n1 [SB-282852] is ___
Result: 54

---

System: MST1
Construct: gene STK4
experimental.context: concentration: 1 μM, replicates: in singlicate; n = 1
So basically, if %Inh comes in under 7% it's yes (1), and if it's 7% or more it's no (0).

Use these answered entries as a reference point.
| compound | target.under.test | group |
| --- | --- | --- |
| O=C(Nc1n[nH]c2nc(-c3cccs3)c(Br)cc12)C1CCCC1 | MST1 | yes (1) |
| CS(=O)(=O)CCNCc1nc(-c2ccc3ncnc(Nc4ccc5c(cnn5Cc5ccccc5)c4)c3c2)cs1.Cl.Cl | MST1 | yes (1) |
| Fc1ccc(-c2nn3cccc(F)c3c2-c2ccncc2)cc1 | MST1 | no (0) |

Ask: Hello, is %Inh of the following compound strictly smaller than 7%? "Nc1cccc(-c2ccc3c(N)n[nH]c3c2)n1"
Result: yes (1)

Ask: Would you kindly verify if %Inh of "CS(=O)(=O)Cc1ccc(Nc2nccc(-c3c(-c4cccc(NC(=O)C5CCCCC5)c4)nn4ncccc34)n2)cc1" is strictly less than 7%?
Result: no (0)

Ask: Is the reported %Inh for Cn1cncc1C(=O)NC1CCN(c2ccnc(Nc3ccc(F)cc3)n2)C1 (centres unmarked) strictly below 7%?
Result: yes (1)

---

Test system: ACVR1
experimental.context: concentration: 1 μM, replicates: in singlicate; n = 1
Measured %Inh, listed per entry for reference.
API: value field is a number in %; no unit string.

Example cases with answers are listed next.
| molecule | %Inh (%) |
| --- | --- |
| COC(=O)c1cccc(NC(=O)NC2CCN(c3ccnc(Nc4ccc(OC)cc4)n3)C2)c1 (stereo not shown) | 41 |
| CNC(=O)c1ccc(C)c(-n2c(C)cc(OCc3ccc(F)cc3F)c(Br)c2=O)c1 | 0 |
| COC(=O)C(Cc1ccccc1)NC(=O)NC1CCN(c2ccnc(Nc3ccc(F)cc3)n2)C1 (stereo not shown) | 6 |
| Cc1ccc(NC(=O)Nc2ccccc2F)cc1-c1ccc(C(=O)Nc2ccncc2)cc1 | 32 |
| c1ccc(-c2ccnc3[nH]ccc23)cc1 | 0 |

Ask: Entry "O=C(Nc1n[nH]c2nc(-c3cccs3)c(Br)cc12)C1CC1" : reported %Inh = ?
Result: 27

Ask: // lookup %Inh for COc1ccc(Nc2nccc(N3CCC(NC(=O)C(C)c4ccc(Cl)cc4)CC3)n2)cc1 (stereo not shown)
Result: 8

Ask: For the molecule shown here, "COc1ccc(CSc2nnc(-c3ccc4ncsc4c3)o2)cc1C(F)(F)F" , give the reported %Inh.
Result: 0

Ask: Using the record for "COc1ccc2cc(-c3nc(-c4ccccc4C(C)C)[nH]c3-c3ccncc3)ccc2c1" , report its %Inh.
Result: 17

Ask: // returns reported %Inh for input "CCCCc1nn2ncccc2c1-c1ccnc(NC2CC2)n1"
Result: 2

Ask: Need %Inh of "O=C1NC(=O)C(c2ccc(Cl)cc2)=C1Nc1cccc(Cl)c1" , thanks.
Result: 0

Ask: Query (molecule): "O=C1NC(=O)C(c2ccc(Cl)cc2)=C1Nc1ccc(O)cc1" ; field requested: %Inh
Result: 11

Ask: May I ask what %Inh has been recorded for "Cc1cccc2c(-c3ccncn3)c(-c3ccc(F)cc3)nn12" ?
Result: 0
